Test: AUC in rat at 2 mg/kg, po
Format: ADME, organism-based
Design: dose 2 mg/kg, route oral
Details: plasma
READOUT_LABEL: AUC (µg·h/mL)

P: C[C@](O)(c1ccc(C(=O)N(C2CC2)[C@H]2CC[C@](O)(C3CC3)CC2)cc1)C(F)(F)F
Q: C[C@](O)(c1ccc(C(=O)N(C2CC2)[C@H]2CC[C@](C#N)(C3CC3)CC2)cc1)C(F)(F)F
Hey, between P and Q which has a smaller measured AUC? Lab log: write the label of the selected item as the result. Q
(Q: 4.1 µg·h/mL, P: 8.9 µg·h/mL)

###

Collected metabolised at 0.5 h values appear next to each entry.
Test: Metabolic stability in human liver microsomes assessed as compound turnover after 30 mins
Assay type: ADME, Microsome
Settings: read-out: Activity

# STRUCTURE_STRING, RECORDED_RESULT
records = [
    ("C[C@](O)(c1ccc(C(=O)N(C2CC2)[C@H]2CC[C@](O)(C3CC3)CC2)cc1)C(F)(F)F", "< 5%"),
    ("C[C@@](O)(c1ccc(C(=O)N(C2CC2)[C@H]2CC[C@](C#N)(c3ccccn3)CC2)cc1)C(F)(F)F", "< 5%"),
]

Here's the next entry for you.
Quote metabolised at 0.5 h reported for C[C@](O)(c1ccc(C(=O)N(C2CC2)[C@H]2CC[C@H](c3cccnc3)CC2)cc1)C(F)(F)F please. < 5%

###

Target: 11-beta-hydroxysteroid dehydrogenase 1 (Homo sapiens, UniProt P28845)
Sequence (P28845 whole entry): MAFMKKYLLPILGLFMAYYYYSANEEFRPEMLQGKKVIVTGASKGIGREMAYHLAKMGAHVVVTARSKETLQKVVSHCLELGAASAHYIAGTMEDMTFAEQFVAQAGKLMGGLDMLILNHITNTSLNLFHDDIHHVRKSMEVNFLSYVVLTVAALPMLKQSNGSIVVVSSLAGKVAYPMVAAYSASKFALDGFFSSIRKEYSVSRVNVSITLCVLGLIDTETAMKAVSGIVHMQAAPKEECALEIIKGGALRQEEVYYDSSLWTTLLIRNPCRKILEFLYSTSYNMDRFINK
Assay: Inhibition of FLAG-tagged full length human 11beta-HSD1 expressed in baculovirus-infected Trichoplusia ni Hi5 cells assessed as reduction of [3H]cortisone to [3H]cortisol by scintillation proximity assay in presence of NADPH
READOUT_LABEL: IC50 (nM)

Completed entries (count: 2):
# STRUCTURE_STRING, IC50 [nM]
data = [
    ("C[C@](O)(c1ccc(C(=O)N(C2CC2)[C@H]2CC[C@H](c3cccnc3)CC2)cc1)C(F)(F)F", 1.7),
    ("C[C@](O)(c1ccc(C(=O)N(C2CC2)[C@H]2CC[C@@H](c3ccc(C#N)cc3)CC2)cc1)C(F)(F)F", 4.9),
]

1: C[C@](O)(c1ccc(C(=O)N(C2CC2)[C@H]2CC[C@H](c3ccc(C#N)cc3)CC2)cc1)C(F)(F)F
2: C[C@](O)(c1ccc(C(=O)N(C2CC2)[C@H]2CC[C@@H](c3cccnc3)CC2)cc1)C(F)(F)F
// max by IC50 over [ 1 , 2 ] Mark your selection by writing its label. 2

###

Molecular target: Nuclear receptor subfamily 1 group I member 2 (Homo sapiens, UniProt O75469)
Sequence (O75469 whole entry): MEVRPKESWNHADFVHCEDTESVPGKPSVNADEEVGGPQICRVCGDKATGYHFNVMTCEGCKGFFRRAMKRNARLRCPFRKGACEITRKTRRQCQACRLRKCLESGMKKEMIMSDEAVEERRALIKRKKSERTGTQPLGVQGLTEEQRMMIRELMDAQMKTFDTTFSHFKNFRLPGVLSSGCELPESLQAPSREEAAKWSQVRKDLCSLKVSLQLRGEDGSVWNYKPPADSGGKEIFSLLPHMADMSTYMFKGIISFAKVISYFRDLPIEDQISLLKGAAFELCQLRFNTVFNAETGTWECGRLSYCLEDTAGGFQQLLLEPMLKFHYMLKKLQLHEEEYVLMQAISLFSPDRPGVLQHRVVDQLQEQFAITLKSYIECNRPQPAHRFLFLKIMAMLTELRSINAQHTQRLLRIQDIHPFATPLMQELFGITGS
Experiment: Activation of human PXR expressed in human HepG2 cells at 2 uM by luciferase reporter gene assay relative to rifampin
Assay type: cell-based
Details: hepg2, 2 µM
READOUT_LABEL: Activity

The following compounds have reported results that may help.
# STRUCTURE_STRING, EXPERIMENTAL_SYSTEM, Activity
rows = [
    ("C[C@](O)(c1ccc(C(=O)N(C2CC2)[C@H]2CC[C@](O)(c3cccnc3)CC2)cc1)C(F)(F)F", "Nuclear receptor subfamily 1 group I member 2 (Homo sapiens, UniProt O75469)", "< 5%"),
    ("C[C@](O)(c1ccc(C(=O)N(C2CC2)[C@H]2CC[C@](O)(c3ccccc3)CC2)cc1)C(F)(F)F", "Nuclear receptor subfamily 1 group I member 2 (Homo sapiens, UniProt O75469)", "< 5%"),
]

Consider the additional compound presented here.
Item C[C@](O)(c1ccc(C(=O)N(C2CC2)[C@H]2CC[C@@H](c3cccnc3)CC2)cc1)C(F)(F)F : provide Activity 38%

###

Assay: Tmax in po dosed Sprague-Dawley rat
Format: ADME, organism-based
Settings: in vivo
READOUT_LABEL: Tmax (h)
Provide the reading as a plain figure in h.

Output Tmax of C[C@](O)(c1ccc(C(=O)N(C2CC2)[C@H]2CC[C@](O)(C3CC3)CC2)cc1)C(F)(F)F 2

###

Assay: Bioavailability in rat at 0.5 mg/kg, iv and 2 mg/kg, po
Assay type: ADME, organism-based
Settings: in vivo
READOUT_LABEL: bioavailability (%)
Report only the number, with the unit % understood.

# return recorded bioavailability for entry C[C@](O)(c1ccc(C(=O)N(C2CC2)[C@H]2CC[C@](O)(C3CC3)CC2)cc1)C(F)(F)F 76

###

Assay: Metabolic stability in human liver microsomes assessed as compound turnover after 30 mins
Assay type: ADME, Microsome
Details: read-out: Activity
READOUT_LABEL: metabolised at 0.5 h (%)

# STRUCTURE_STRING, READOUT_LABEL, RECORDED_RESULT
records = [
    ("C[C@@](O)(c1ccc(C(=O)N(C2CC2)[C@H]2CC[C@@](C#N)(c3ccccn3)CC2)cc1)C(F)(F)F", "metabolised at 0.5 h", 6.9),
]

1: C[C@](O)(c1ccc(C(=O)N(C2CC2)[C@H]2CC[C@](C#N)(c3ccc(C#N)cc3)CC2)cc1)C(F)(F)F
2: C[C@](O)(c1ccc(C(=O)N(C2CC2)[C@H]2CC[C@](O)(CC3CC3)CC2)cc1)C(F)(F)F
3: C[C@](O)(c1ccc(C(=O)N(C2CC2)[C@H]2CC[C@@H](c3ccc(C#N)cc3)CC2)cc1)C(F)(F)F
# sort list by recorded metabolised at 0.5 h, greatest to least Respond with an ordered listing of the labels, as requested. 3, 2, 1
(3: 33%, 2: 10%, 1: 6.8%)

###

Experiment: Bioavailability in cynomolgus monkey at 0.5 mg/kg, iv and 2 mg/kg, po
Details: in vivo
READOUT_LABEL: bioavailability (%)
The response must be a number in % with no trailing unit.

Find the measured bioavailability of C[C@](O)(c1ccc(C(=O)N(C2CC2)[C@H]2CC[C@](C#N)(C3CC3)CC2)cc1)C(F)(F)F and report it. 5

###

Assay: Volume of distribution at steady state in cynomolgus monkey at 0.5 mg/kg, iv and 2 mg/kg, po
Conditions: in vivo, read-out: Vdss
READOUT_LABEL: Vd (L/kg)
API: value field is a number in L/kg; no unit string.

Return Vd (reported value) for this molecule: C[C@](O)(c1ccc(C(=O)N(C2CC2)[C@H]2CC[C@](C#N)(C3CC3)CC2)cc1)C(F)(F)F 1.9

###

Assay: Clearance in rat at 0.7 mg/kg, iv and 2 mg/kg, po
Assay type: ADME, organism-based
Settings: in vivo
READOUT_LABEL: clearance (mL/min/kg)
// return numeric value only (unit: mL/min/kg, not printed)

Complete the entry with clearance for C[C@](O)(c1ccc(C(=O)N(C2CC2)[C@H]2CC[C@](C#N)(C3CC3)CC2)cc1)C(F)(F)F 3.17
